Assay: Tanguay_ZF_120hpf_SNOU_legacy: (Legacy) Oregon State University Tanguay Lab 120 Hour Post-fertilization zebrafish Assay for Snout Malformation (AID 2283637)
Inconclusive results are not listed. Calls of active or inactive are those of the source. Rule for the calls: active = hit-call score of the fitted dose curve at least 0.9, where 1 is the maximum; inconclusive = response in the unintended direction; inactive = score below 0.9.

| Molecule | AC50 |
| --- | --- |
| Cc1cccc(Nc2cc(Cl)nc(SCC(=O)O)n2)c1C | inactive |
| COc1cc(-c2nc(NC(=O)c3cc4cc(C)cc(C)c4n3CC(=O)O)sc2CCC2CCCCC2)c(OC)cc1Cl | inactive |
| CCCCCCCCCCCCCCCC | inactive |
| Nc1nc(N)c2nc(CNc3ccc(C(=O)N[C@@H](CCC(=O)O)C(=O)O)cc3)cnc2n1 | inactive |
| COc1ccc(C)cc1N | inactive |
| CC1(C)CC(N=C=O)CC(C)(CN=C=O)C1 (stereo not drawn) | inactive |
| O=[N+]([O-])C(CO)(CO)CO | inactive |
| C[Si]1(C)O[Si](C)(C)O[Si](C)(C)O[Si](C)(C)O1 | inactive |
| CCCCCC(=O)O | inactive |
| CC(C)c1ccc(C(=O)N=C(N)N)cc1S(C)(=O)=O | inactive |
| O=C(N[C@@H](Cc1ccccc1)[C@@H](O)C(=O)N1C[C@@H](O)[C@@H](O)C1)c1cc2cc(Cl)ccc2[nH]1 | inactive |
| Cc1ccc(C(C)C)c(O)c1 | inactive |
| Cc1c(C(=O)O)c(O)cc2c1C(=O)c1c(O)c([C@@H]3O[C@H](CO)[C@@H](O)[C@H](O)[C@H]3O)c(O)c(O)c1C2=O | inactive |
| Nc1ccc2c(c1)C(=O)c1ccccc1C2=O | inactive |
| COC(=O)c1ccc(O)cc1 | inactive |
| CNCc1cc(F)ccc1Oc1ccc(Cl)c(Cl)c1 | inactive |
| CNC(=O)[C@H]1O[C@@H](n2cnc3c(NCc4cc(Cl)ccc4OCc4cc(C)no4)ncnc32)[C@H](O)[C@@H]1N | inactive |
| CC(=O)C(C)=CC1C(C)=CCCC1(C)C (stereo not drawn) | inactive |
| COCCOCCOC | inactive |
| Nc1ccccc1N | inactive |
| Cc1nc(-c2ccc3c(c2)CCN(CCC2CCC(NC(=O)/C=C/c4ccc(F)cc4)CC2)CC3)no1 (stereo not drawn) | inactive |
| CC(C)(C)c1cc(O)c(C(C)(C)C)cc1O | 35.6 µM (active) |
| FC(F)(F)C(F)(F)C(F)(F)C(F)(F)C(F)(F)C(F)(F)CCI | inactive |
| CN[C@H]1CC[C@@H](c2ccc(Cl)c(Cl)c2)c2ccc(S(N)(=O)=O)cc21 | inactive |
| CCOC(=O)CCC(=O)OCC | inactive |
| COc1cc(S(=O)(=O)O)c(C)cc1N=Nc1c(O)ccc2cc(S(=O)(=O)O)ccc12 | inactive |
| Cc1ccc(N(C)C)cc1 | inactive |
| COc1cc(C=O)ccc1O | 36.6 µM (active) |
| CCCc1cc(=O)[nH]c(=S)[nH]1 | inactive |
| CC1=C(/C=C/C(C)=C/C=C/C(C)=C/CO)C(C)(C)CCC1 | inactive |
| Cc1nc(C)nc(N2C[C@@H](C)N(c3ccnc([C@@H](C)O)n3)[C@@H](C)C2)n1 | inactive |
| Oc1ccc2ccccc2c1N=Nc1ccccc1 | 43.8 µM (active) |
| O=c1c(O)c(-c2ccc(O)c(O)c2)oc2cc(O)cc(O)c12 | inactive |

# credit: PubChem BioAssay (EPA / NIEHS)
